Recorded pIC50 for the following compounds
- testedTarget: LPAR1 (Homo sapiens (Human))
- protocolNotes: LPAR1 Calcium Flux Assay
- Assay type: cell-based
- assaySetup: U937 cells overexpressing human LPAR1, LPA-stimulated calcium, FLIPR
- Sequence (Q92633 whole entry): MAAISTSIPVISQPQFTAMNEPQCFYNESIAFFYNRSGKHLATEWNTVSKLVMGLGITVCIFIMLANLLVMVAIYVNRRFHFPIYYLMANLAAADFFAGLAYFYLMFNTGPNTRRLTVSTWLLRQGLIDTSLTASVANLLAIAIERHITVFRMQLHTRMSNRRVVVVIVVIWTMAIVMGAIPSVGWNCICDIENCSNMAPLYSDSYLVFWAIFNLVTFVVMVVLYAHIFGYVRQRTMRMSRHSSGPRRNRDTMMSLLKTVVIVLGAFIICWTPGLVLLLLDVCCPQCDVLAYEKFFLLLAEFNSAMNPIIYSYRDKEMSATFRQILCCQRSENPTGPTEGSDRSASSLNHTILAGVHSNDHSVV
pIC50: −log10 of the molar value. Where a name gives a salt, the structure may show the parent alone.

{"columns": ["compound", "testedTarget", "pIC50"],
 "data": [
  ["CC(C)c1cncc(Nc2c(-c3ccc(-c4ccc(C5(C(=O)O)CC5)nc4)cn3)cnn2C)n1 [Example 23]", "LPAR1 (Homo sapiens (Human))", 6.95],
  ["Cn1ncc(-c2ccc(-c3ccc(C4(C(=O)O)CC4)cc3)cn2)c1Nc1cncc(OC(C)(C)C)n1 [Example 1]", "LPAR1 (Homo sapiens (Human))", 7.13],
  ["Cc1cc(C2(C(=O)O)CC2)ccc1-c1ccc(-c2cnn(C)c2Nc2cncc(C(C)C)n2)nc1 [Example 22, Hydrochloride]", "LPAR1 (Homo sapiens (Human))", 7.51],
  ["Cn1ncc(-c2ncc(-c3ccc(C4(C(=O)O)CC4)cc3)cc2F)c1Nc1cncc(OC2CC2)n1 [Example 3, Hydrochloride]", "LPAR1 (Homo sapiens (Human))", 8.06],
  ["Cn1ncc(-c2ccc(-c3ccc(C4(C(=O)O)CC4)cc3)cc2)c1Nc1cncc(C2CC2)n1 [Example 25]", "LPAR1 (Homo sapiens (Human))", 7.28],
  ["Cc1cc(-c2ccc(-c3cnn(C)c3Nc3cncc(OC(C)C)n3)nc2)ccc1C1(C(=O)O)CC1 [Example 7, Hydrochloride]", "LPAR1 (Homo sapiens (Human))", 7.57],
  ["CC(C)Oc1cncc(Nc2c(-c3ncc(-c4ccc(C5(C(=O)O)CC5)cc4)cc3F)cnn2C)n1 [Example 11, Hydrochloride]", "LPAR1 (Homo sapiens (Human))", 7.95]
]}

====

- testedTarget: LPAR1 (Homo sapiens (Human))
- protocolNotes: LPAR1 Calcium Flux Assay
- Format: cell-based
- assaySetup: U937 cells overexpressing human LPAR1, LPA-stimulated calcium, FLIPR
pIC50: −log10 of the molar value. Structures can show the parent of a compound that is named as a salt.
readoutLabel: pIC50

{"columns": ["compound", "dataValue"],
 "data": [
  ["COC(C)(C)c1cncc(Nc2c(-c3ccc(-c4ccc(C5(C(=O)O)CC5)cc4)cn3)cnn2C)n1 [Example 6, Hydrochloride]", 6.91],
  ["Cn1ncc(-c2ccc(-c3ccc(C4(C(=O)O)CC4)cc3)cn2)c1Nc1cncc(C(C)(F)F)n1 [Example 12, Hydrochloride]", 7.61],
  ["Cn1ncc(-c2ccc(-c3ccc(C4(C(=O)O)CC4)cc3)cn2)c1Nc1cncc(C(C)(C)F)n1 [Example 13, Hydrochloride]", 7.36]
]}

====

Recorded pIC50 values for a group of molecules are listed next.
- testedTarget: LPAR1 (Homo sapiens (Human))
- protocolNotes: LPAR1 Calcium Flux Assay
- Assay type: cell-based
- assaySetup: U937 cells overexpressing human LPAR1, LPA-stimulated calcium, FLIPR
- Source text: LPAR1 Calcium Flux Assays A cDNA encoding the human LPAR1 receptor is synthesized and cloned into pDNA3 expression plasmid. The plasmid is transfected in U937 cells using Lipofectamine 2000 (Invitrogen Corp., USA). Clones stably expressing human LPAR1 are selected using puromycin and identified as cells that show Ca-influx in response to LPA. […]
pIC50: −log10 of the molar value.
readoutLabel: pIC50

{"columns": ["molecule", "dataValue"],
 "data": [
  ["CC(C)c1cncc(Nc2c(-c3ncc(-c4ccc(C5(C(=O)O)CC5)cc4)cn3)cnn2C)n1", 7.62],
  ["CC(C)Oc1cncc(Nc2c(-c3ccc(-c4ccc(C5(C(=O)O)CC5)cc4)cn3)cnn2C)n1.Cl [Example 20, Hydrochloride]", 7.53],
  ["CC(C)Cc1cncc(Nc2c(-c3ccc(-c4ccc(C5(C(=O)O)CC5)cc4)cc3)cnn2C)n1", 7.26],
  ["CC(C)c1cncc(Nc2c(-c3ccc(-c4ccc(C5(C(=O)O)CC5)cc4)cc3)cnn2C)n1", 7.63],
  ["Cn1ncc(-c2ccc(-c3ccc(C4(C(=O)O)CC4)cc3)cn2)c1Nc1cncc(C(F)(F)F)n1", 7.44]
]}

====

Documented IC50 across a set of molecules
- testedTarget: human LPAR3 (Homo sapiens (Human))
- Sequence (Q9UBY5 whole entry): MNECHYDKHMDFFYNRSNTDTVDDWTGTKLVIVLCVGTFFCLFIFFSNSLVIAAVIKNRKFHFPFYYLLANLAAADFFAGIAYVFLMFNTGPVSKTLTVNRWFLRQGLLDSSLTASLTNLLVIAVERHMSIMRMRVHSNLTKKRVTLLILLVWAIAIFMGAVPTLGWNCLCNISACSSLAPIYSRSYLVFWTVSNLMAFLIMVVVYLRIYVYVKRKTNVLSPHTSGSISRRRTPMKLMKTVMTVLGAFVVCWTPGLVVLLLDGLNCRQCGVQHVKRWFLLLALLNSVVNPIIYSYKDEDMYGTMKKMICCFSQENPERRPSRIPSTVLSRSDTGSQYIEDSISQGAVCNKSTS
- protocolNotes: LPAR3 Calcium Flux Assay
- assaySetup: U2OS cells overexpressing human LPAR3, LPA-stimulated calcium, FLIPR
Counter-ions that a name gives are not always drawn.
readoutLabel: IC50 (µM)

{"columns": ["molecule", "testedTarget", "readoutLabel", "resultOperator", "dataValue"],
 "data": [
  ["Cn1ncc(-c2ccc(-c3ccc(C4(C(=O)O)CC4)c(C#N)c3)cn2)c1Nc1cncc(OC2CC2)n1 [Example 9, Hydrochloride]", "human LPAR3 (Homo sapiens (Human))", "IC50", ">", 10],
  ["CC(C)c1cncc(Nc2c(-c3ccc(-c4ccc(C5(C(=O)O)CC5)cc4CC#N)cn3)cnn2C)n1 [Example 15, Hydrochloride]", "human LPAR3 (Homo sapiens (Human))", "IC50", ">", 10],
  ["Cc1cc(C2(C(=O)O)CC2)ccc1-c1ccc(-c2cnn(C)c2Nc2cncc(C(C)C)n2)nc1 [Example 22, Hydrochloride]", "human LPAR3 (Homo sapiens (Human))", "IC50", "=", 1.17],
  ["Cn1ncc(-c2ncc(-c3ccc(C4(C(=O)O)CC4)cc3)cc2F)c1Nc1cncc(OC2CC2)n1 [Example 3, Hydrochloride]", "human LPAR3 (Homo sapiens (Human))", "IC50", "=", 2.48],
  ["Cn1ncc(-c2ncc(-c3ccc(C4(C(=O)O)CC4)cc3)cc2F)c1Nc1cncc(C(C)(C)F)n1 [Example 4, Hydrochloride]", "human LPAR3 (Homo sapiens (Human))", "IC50", "=", 1.59],
  ["CC(C)c1cncc(Nc2c(-c3ccc(-c4ccc(C5(C(=O)O)CC5)cc4)cc3)cnn2C)n1 [Example 26]", "human LPAR3 (Homo sapiens (Human))", "IC50", ">", 10],
  ["CC(C)Cc1cncc(Nc2c(-c3ccc(-c4ccc(C5(C(=O)O)CC5)cc4)cc3)cnn2C)n1 [Example 17]", "human LPAR3 (Homo sapiens (Human))", "IC50", "=", 1.83],
  ["Cn1ncc(-c2ccc(-c3ccc(C4(C(=O)O)CC4)cc3)cn2)c1Nc1cncc(C(F)(F)F)n1 [Example 21]", "human LPAR3 (Homo sapiens (Human))", "IC50", "=", 1.61]
]}

====

- testedTarget: human LPAR3 (Homo sapiens (Human))
- protocolNotes: LPAR3 Calcium Flux Assay
- assaySetup: U2OS cells overexpressing human LPAR3, LPA-stimulated calcium, FLIPR
Counter-ions that a name gives are not always drawn.
Item-by-item account of IC50
readoutLabel: IC50

{"columns": ["molecule", "dataValue"],
 "data": [
  ["COCc1cc(C2(C(=O)O)CC2)ccc1-c1ccc(-c2cnn(C)c2Nc2cncc(C(C)C)n2)nc1 [Example 14, Hydrochloride]", "> 10 µM"],
  ["CC(C)c1cncc(Nc2c(-c3ccc(-c4ccc(C5(C(=O)O)CC5)nc4)cn3)cnn2C)n1", "> 10 µM"],
  ["Cn1ncc(-c2ccc(-c3ccc(C4(C(=O)O)CC4)cc3)cc2)c1Nc1cncc(C2CC2)n1", "> 10 µM"]
]}

====

- testedTarget: LPAR1 (Homo sapiens (Human))
pKi: −log10 of the molar value. Where a name gives a salt, the structure may show the parent alone.
Quick list: pKi per entry.
readoutLabel: pKi

{"columns": ["molecule", "dataValue"],
 "data": [
  ["Cn1ncc(-c2ncc(-c3ccc(C4(C(=O)O)CC4)cc3)cc2F)c1Nc1cncc(C(C)(C)F)n1 [Example 4, Hydrochloride]", 7.09],
  ["Cn1ncc(-c2ncc(-c3ccc(C4(C(=O)O)CC4)cc3)cc2F)c1Nc1cncc(OC2CC2)n1 [Example 3, Hydrochloride]", 7.35],
  ["CC(C)c1cncc(Nc2c(-c3ccc(-c4ccc(C5(C(=O)O)CC5)cc4C#N)cn3)cnn2C)n1 [Example 16, Hydrochloride]", 7.27]
]}
